Data origin, for the record: ChEMBL document CHEMBL1140725

# Tested on: Rattus norvegicus
# ASSAY PROCEDURE: Cmax in rat liver at 30 mg/kg, po
# Assay type: ADME, organism-based
# Parameters: dose 30 mg/kg, route oral
# CONDITION PARAMETERS: in vivo
OBSERVABLE: Cmax (nmol/g)
Your answer should be a plain number; it is taken to be in nmol/g.

[[record]]
compound = "CS(=O)(=O)O.Nc1ncnc2c1ncn2CCOCP1(=O)OCCC(c2cccc(Cl)c2)O1 (centres undefined)"
observable = "Cmax"
reported = 19.6

[[record]]
compound = "Nc1ncnc2c1ncn2CCOC[P@@]1(=O)OCC[C@@H](c2cccc(Cl)c2)O1 [PRADEFOVIR]"
observable = "Cmax"
reported = 12.2

[[record]]
compound = "Nc1ncnc2c1ncn2CCOCP1(=O)OCCC(c2cccc(Cl)c2)O1 (cis isomer)"
observable = "Cmax"
reported = 8


Attention now shifts to the item below.
// "Nc1ncnc2c1ncn2CCOC[P@]1(=O)OCC[C@H](c2cccc(Cl)c2)O1" : Cmax value = 5.4

====

# System: Liver microsomes
# ASSAY PROCEDURE: Prodrug activation in Wistar rat liver microsome assessed as formation of adefovir at 250 uM after 5 mins
Threshold-based label: Activity under 2 nmol/min/mg gives true, Activity not under 2 nmol/min/mg gives false.

Solved cases (5 shown):
[[record]]
compound = "Nc1ncnc2c1ncn2CCOCP1(=O)OCCC(c2ccsc2)O1 (stereo unspecified)"
tested_system = "Liver microsomes"
category = "true"

[[record]]
compound = "Nc1ncnc2c1ncn2CCOCP1(=O)OCCC(c2cccnc2)O1 (stereo unspecified)"
tested_system = "Liver microsomes"
category = "false"

[[record]]
compound = "Nc1ncnc2c1ncn2CCOCP1(=O)OCCC(c2ccncc2)O1 (stereo unspecified)"
tested_system = "Liver microsomes"
category = "false"

[[record]]
compound = "Nc1ncnc2c1ncn2CCOCP1(=O)OCCC(c2c(F)cccc2F)O1 (stereo unspecified)"
tested_system = "Liver microsomes"
category = "true"

[[record]]
compound = "Nc1ncnc2c1ncn2CCOCP1(=O)OCCC(c2cccc(Br)c2)O1 (stereo unspecified)"
tested_system = "Liver microsomes"
category = "true"


Task item: Input Nc1ncnc2c1ncn2CCOCP1(=O)OCCC(c2cccc(F)c2)O1 (stereo unspecified) ; condition: Activity strictly below 2 nmol/min/mg. Does it hold?
Reply: true

====

# System: Liver microsomes
# ASSAY PROCEDURE: Prodrug activation in Wistar rat liver microsome assessed as formation of adefovir at 250 uM after 5 mins
Quick list: Activity per entry.
Your answer should be a plain number; it is taken to be in nmol/min/mg.

Use the examples below as a reference point.
[[record]]
compound = "Nc1ncnc2c1ncn2CCOCP1(=O)OCCC(c2ccoc2)O1 (centres undefined)"
observable = "Activity"
units_label = "nmol/min/mg"
reported = 4

[[record]]
compound = "Nc1ncnc2c1ncn2CCOC[P@]1(=O)OCC[C@H](c2cccc(Cl)c2)O1"
observable = "Activity"
units_label = "nmol/min/mg"
reported = 0.193

[[record]]
compound = "Nc1ncnc2c1ncn2CCOCP1(=O)OCCC(c2ccc(F)cc2F)O1 (centres undefined)"
observable = "Activity"
units_label = "nmol/min/mg"
reported = 2.5

[[record]]
compound = "Nc1ncnc2c1ncn2CCOCP1(=O)OCCC(c2cc(Cl)cc(Cl)c2)O1 (centres undefined)"
observable = "Activity"
units_label = "nmol/min/mg"
reported = 1.9

[[record]]
compound = "Cc1cc(C)cc(C2CCOP(=O)(COCCn3cnc4c(N)ncnc43)O2)c1 (centres undefined)"
observable = "Activity"
units_label = "nmol/min/mg"
reported = 1.6


Attention now shifts to the item below.
// Nc1ncnc2c1ncn2CCOCP1(=O)OCCC(c2cccc(F)c2F)O1 (centres undefined) : Activity value = 6.3

====

# Tested on: Hepatocyte
# ASSAY PROCEDURE: Prodrug activation in intracellular rat hepatocytes assessed as formation of adefovir diphosphate after 2 hrs
# Assay type: cell-based
Quick list: Activity per entry.

Use the examples below as a reference point.
[[record]]
compound = "COc1ccc(Br)c(C2CCOP(=O)(COCCn3cnc4c(N)ncnc43)O2)c1 (stereo not drawn)"
reported = "< 0.5 nmol·h/g"

[[record]]
compound = "Nc1ncnc2c1ncn2CCOCP1(=O)OCCC(c2ccccc2)O1 (stereo not drawn)"
reported = "149.1 nmol·h/g"


Attention now shifts to the item below.
// COc1ccc(C2CCOP(=O)(COCCn3cnc4c(N)ncnc43)O2)cc1Br (stereo not drawn) : Activity value = < 0.5 nmol·h/g

====

# Test system: Liver microsomes
# ASSAY PROCEDURE: Prodrug activation in Wistar rat liver microsome assessed as formation of adefovir at 250 uM after 5 mins
OBSERVABLE: Activity (nmol/min/mg)
Your answer should be a plain number; it is taken to be in nmol/min/mg.

[[record]]
molecule = "COc1ccc(Br)c(C2CCOP(=O)(COCCn3cnc4c(N)ncnc43)O2)c1 (stereo not given)"
units_label = "nmol/min/mg"
reported = 4

[[record]]
molecule = "Nc1ncnc2c1ncn2CCOCP1(=O)OCCC(c2cccc(Cl)c2)O1 (stereo in doubt; 3h)"
units_label = "nmol/min/mg"
reported = 10.9


Attention now shifts to the item below.
// Nc1ncnc2c1ncn2CCOCP1(=O)OCCC(c2ccccc2Br)O1 (stereo not given) : Activity value = 3.5

====

# Test system: Liver microsomes
# ASSAY PROCEDURE: Prodrug activation in Wistar rat liver microsome assessed as formation of adefovir at 250 uM after 5 mins
OBSERVABLE: Activity

[[record]]
compound = "Nc1ncnc2c1ncn2CCOCP1(=O)OCCC(c2cccc(Cl)c2)O1 (trans isomer)"
reported = "< 0.01 nmol/min/mg"

[[record]]
compound = "Nc1ncnc2c1ncn2CCOCP1(=O)OCCC(c2c(Cl)cccc2Cl)O1 (stereo not drawn)"
reported = "< 1 nmol/min/mg"


Attention now shifts to the item below.
// Nc1ncnc2c1ncn2CCOCP1(=O)OCCC(c2ccccc2F)O1 (stereo not drawn) : Activity value = < 1 nmol/min/mg
